target_under_test: Protein farnesyltransferase (Homo sapiens, UniProt P49354+P49356)
assay_procedure: Concentration required for the inhibitory activity against human Farnesyltransferase
Format: protein-complex assay
result_type: IC50 (nM)

(1) CC(C)N(Cc1cnccn1)C(=O)Cc1c(-c2ccccc2)[nH]c2ccccc12
(2) CC(C)N(Cc1ccoc1)C(=O)Cc1c(-c2ccccc2)[nH]c2ccccc12
(3) CC(C)N(Cc1ccco1)C(=O)Cc1c(-c2ccccc2)[nH]c2ccccc12
Incoming: Which order do the above compounds take when sorted by rising IC50? Smallest first. # respond with the labels, arranged in the requested order
Outgoing: 2, 3, 1

(a) N#Cc1ccc(Cn2cncc2CN2CCN(C(=O)NC34CC5CC(CC(C5)C3)C4)CC2)cc1
(b) CCN(Cc1ccncc1)C(=O)Cc1c(-c2ccccc2)[nH]c2ccccc12
Incoming: Lab notebook, comparison: a versus b , higher IC50 goes to which? State the label of the item chosen.
Outgoing: a

(P) Cc1ccccc1-c1[nH]c2ccccc2c1CC(=O)N(Cc1ccncc1)C(C)C
(Q) COc1ccccc1-c1[nH]c2ccccc2c1CC(=O)N(Cc1ccncc1)C(C)C
Incoming: Lab notebook, comparison: P versus Q , higher IC50 goes to which? State the label of the item chosen.
Outgoing: Q
(Q: 1370 nM, P: 31 nM)

Recorded values, source ChEMBL document CHEMBL1134005.
